- assay.target: T1, Clostridium difficile toxin A (TcdA) (Clostridium difficile, UniProt P16154 1-2710)
- T1 construct: mature; also called full-length TcdA
- T1 sequence (P16154 whole entry): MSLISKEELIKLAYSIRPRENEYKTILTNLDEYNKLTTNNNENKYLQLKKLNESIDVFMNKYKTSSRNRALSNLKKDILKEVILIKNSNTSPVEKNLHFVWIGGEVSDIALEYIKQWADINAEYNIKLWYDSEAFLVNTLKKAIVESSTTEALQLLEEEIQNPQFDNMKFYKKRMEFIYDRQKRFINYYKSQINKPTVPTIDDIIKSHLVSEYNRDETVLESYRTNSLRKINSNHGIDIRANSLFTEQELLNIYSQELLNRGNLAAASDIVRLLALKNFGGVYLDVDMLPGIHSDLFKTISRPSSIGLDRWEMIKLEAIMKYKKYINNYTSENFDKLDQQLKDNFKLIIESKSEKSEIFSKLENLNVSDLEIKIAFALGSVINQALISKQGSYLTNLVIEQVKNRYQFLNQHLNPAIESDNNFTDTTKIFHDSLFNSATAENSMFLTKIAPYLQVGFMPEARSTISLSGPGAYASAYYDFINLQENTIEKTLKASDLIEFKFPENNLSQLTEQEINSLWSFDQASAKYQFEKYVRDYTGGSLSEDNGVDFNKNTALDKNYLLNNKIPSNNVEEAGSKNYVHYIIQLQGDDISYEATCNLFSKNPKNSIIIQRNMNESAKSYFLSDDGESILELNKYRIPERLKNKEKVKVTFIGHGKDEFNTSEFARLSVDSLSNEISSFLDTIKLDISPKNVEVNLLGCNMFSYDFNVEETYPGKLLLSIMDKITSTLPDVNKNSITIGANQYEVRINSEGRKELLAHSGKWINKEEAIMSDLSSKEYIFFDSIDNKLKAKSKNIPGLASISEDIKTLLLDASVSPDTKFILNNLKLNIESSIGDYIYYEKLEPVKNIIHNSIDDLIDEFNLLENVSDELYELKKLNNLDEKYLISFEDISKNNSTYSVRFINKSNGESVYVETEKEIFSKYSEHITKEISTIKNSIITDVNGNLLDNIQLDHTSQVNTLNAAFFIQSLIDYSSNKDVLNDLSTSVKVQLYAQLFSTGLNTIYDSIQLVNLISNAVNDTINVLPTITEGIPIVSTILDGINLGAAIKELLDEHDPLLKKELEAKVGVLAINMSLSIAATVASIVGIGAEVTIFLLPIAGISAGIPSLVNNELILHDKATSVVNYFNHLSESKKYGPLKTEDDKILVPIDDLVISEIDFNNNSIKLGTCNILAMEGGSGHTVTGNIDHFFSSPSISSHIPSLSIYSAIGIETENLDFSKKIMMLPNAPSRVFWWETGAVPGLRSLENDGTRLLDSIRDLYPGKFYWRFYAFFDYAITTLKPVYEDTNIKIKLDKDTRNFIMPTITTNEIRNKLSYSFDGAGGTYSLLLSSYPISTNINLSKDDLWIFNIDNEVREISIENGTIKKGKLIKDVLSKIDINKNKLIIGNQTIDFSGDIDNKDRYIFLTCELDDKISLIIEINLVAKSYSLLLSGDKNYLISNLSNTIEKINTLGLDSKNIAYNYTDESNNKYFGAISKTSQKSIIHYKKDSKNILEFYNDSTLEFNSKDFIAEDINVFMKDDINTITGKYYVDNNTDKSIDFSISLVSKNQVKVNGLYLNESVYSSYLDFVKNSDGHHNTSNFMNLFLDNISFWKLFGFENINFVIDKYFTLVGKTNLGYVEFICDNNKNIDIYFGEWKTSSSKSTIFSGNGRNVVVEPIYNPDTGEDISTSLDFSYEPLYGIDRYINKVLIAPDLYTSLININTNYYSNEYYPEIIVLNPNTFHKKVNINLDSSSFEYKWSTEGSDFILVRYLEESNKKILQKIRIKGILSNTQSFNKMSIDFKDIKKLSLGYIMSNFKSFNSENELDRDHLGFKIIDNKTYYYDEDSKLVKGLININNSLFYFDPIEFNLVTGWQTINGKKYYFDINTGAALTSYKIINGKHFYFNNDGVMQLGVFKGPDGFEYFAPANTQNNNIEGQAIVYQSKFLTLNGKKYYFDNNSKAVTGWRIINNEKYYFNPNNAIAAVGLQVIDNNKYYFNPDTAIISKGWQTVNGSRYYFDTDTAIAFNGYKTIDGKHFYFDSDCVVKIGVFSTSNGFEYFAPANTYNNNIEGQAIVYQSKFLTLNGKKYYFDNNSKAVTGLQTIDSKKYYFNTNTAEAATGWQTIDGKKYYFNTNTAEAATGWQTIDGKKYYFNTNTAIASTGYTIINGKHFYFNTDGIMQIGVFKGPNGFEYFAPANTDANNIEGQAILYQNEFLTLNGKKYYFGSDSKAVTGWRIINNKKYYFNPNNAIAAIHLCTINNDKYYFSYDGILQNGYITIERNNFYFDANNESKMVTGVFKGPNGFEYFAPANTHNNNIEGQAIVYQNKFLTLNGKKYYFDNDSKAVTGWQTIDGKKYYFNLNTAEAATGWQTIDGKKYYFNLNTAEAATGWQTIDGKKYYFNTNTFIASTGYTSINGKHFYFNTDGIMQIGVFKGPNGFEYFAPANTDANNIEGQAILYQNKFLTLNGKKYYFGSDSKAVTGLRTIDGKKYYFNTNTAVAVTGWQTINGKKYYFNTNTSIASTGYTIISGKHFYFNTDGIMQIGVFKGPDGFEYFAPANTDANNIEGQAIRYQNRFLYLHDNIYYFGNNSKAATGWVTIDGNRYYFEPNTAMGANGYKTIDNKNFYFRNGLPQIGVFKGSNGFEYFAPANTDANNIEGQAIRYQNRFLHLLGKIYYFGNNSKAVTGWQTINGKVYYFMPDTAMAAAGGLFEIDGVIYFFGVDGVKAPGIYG
- test.summary: SPR (Biacore 3000), VHH over immobilized TcdA; binding free energy difference relative to parent VHH
Label Met when ΔΔG < -0.08 kcal/mol; otherwise Not met.

-- ask I'd appreciate it if you could check whether A26.8 VHH mutant T54Y (VHH, not shown: small tags and cut ends) VHH: QVKLEESGGGLVQAGGSLRLSCAASERTFSRYPVAWFRQAPGAEREFVAVISSYGTSTYYADSVKGRFTISRDNAKVTVYLQMNNLKREDTAVYFCAVNSQRTRLQDPNEYDYWGQGTQVTVSS has ΔΔG smaller than -0.08 kcal/mol.
-- reply Not met

-- ask Does the reported ΔΔG of A26.8-T56R, Q101K, T103R (VHH, not shown: small tags and cut ends, also called lead triple mutant; best triple mutant) VHH: QVKLEESGGGLVQAGGSLRLSCAASERTFSRYPVAWFRQAPGAEREFVAVISSTGRSTYYADSVKGRFTISRDNAKVTVYLQMNNLKREDTAVYFCAVNSKRRRLQDPNEYDYWGQGTQVTVSS stay below -0.08 kcal/mol?
-- reply Met

-- ask Here's an entry: A26.8-T56R, Q101K, T103K (VHH, not shown: small tags and cut ends) VHH: QVKLEESGGGLVQAGGSLRLSCAASERTFSRYPVAWFRQAPGAEREFVAVISSTGRSTYYADSVKGRFTISRDNAKVTVYLQMNNLKREDTAVYFCAVNSKRKRLQDPNEYDYWGQGTQVTVSS . Is its ΔΔG below -0.08 kcal/mol?
-- reply Met

-- ask I'd appreciate it if you could check whether A26.8 VHH mutant T54W (VHH, not shown: small tags and cut ends) VHH: QVKLEESGGGLVQAGGSLRLSCAASERTFSRYPVAWFRQAPGAEREFVAVISSWGTSTYYADSVKGRFTISRDNAKVTVYLQMNNLKREDTAVYFCAVNSQRTRLQDPNEYDYWGQGTQVTVSS has ΔΔG smaller than -0.08 kcal/mol.
-- reply Not met

-- ask Take the binder A26.8-T103R (VHH, not shown: small tags and cut ends) VHH: QVKLEESGGGLVQAGGSLRLSCAASERTFSRYPVAWFRQAPGAEREFVAVISSTGTSTYYADSVKGRFTISRDNAKVTVYLQMNNLKREDTAVYFCAVNSQRRRLQDPNEYDYWGQGTQVTVSS and say whether its ΔΔG is less than -0.08 kcal/mol.
-- reply Met

Where do these numbers come from? They come from patent US20210171613A1.
